This section presents compounds with their documented Activity values.
- Test system: Quadruplex DNA
- assay info: Displacement of thiazole orange from human ILPR G4 quadruplex DNA at 100 equiv. at pH 7.4 by fluorescent intercalator displacement assay
- Assay type: nucleic-acid assay
Please reply with the bare figure in % and do not write the unit itself.

Here are 5 compounds together with their reported answers.
O=c1c(-c2ccc(O)cc2)coc2cc(O[C@@H]3O[C@H](CO)[C@@H](O)[C@H](O)[C@H]3O)cc(O)c12    6.4
O=C(O)C1=CO[C@@H](O[C@@H]2O[C@H](CO)[C@@H](O)[C@H](O)[C@H]2O)[C@@H]2C(CO)=CC[C@H]12    1.4
O=c1c(-c2ccc(O)cc2)coc2cc(O[C@@H]3O[C@H](CO)[C@@H](O)[C@H](O)[C@H]3O)ccc12    2.4
O=C(O)[C@H]1O[C@@H](Oc2cc3oc(-c4ccccc4)cc(=O)c3c(O)c2O)[C@H](O)[C@@H](O)[C@@H]1O    17.7
OC[C@H]1O[C@@H](O[C@@H]2[C@@H](CO)O[C@](O)(CO)[C@H]2O)[C@H](O)[C@@H](O)[C@H]1O    0.4

# evaluate next
Looking up COC(=O)C1=CO[C@@H](O[C@@H]2O[C@H](CO)[C@@H](O)[C@H](O)[C@H]2O)[C@@H]2C(CO)=CC[C@H]12 , I see its Activity listed as 1.8
